# TEST DETAILS: NCI Yeast Anticancer Drug Screen. Data for the rad50 strain (AID 155);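 also: 0% = growth of vehicle-only cultures of the same strain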
# CONDITION INFO: S. cerevisiae rad50 strain growth inhibition; at 11.0 µM; hits give high values
About 79,000 compounds went through this panel and 15% of them were active in at least one assay; those are over-represented in the sample as a whole.
MEASUREMENT TYPE: growth inhibition (%)
Please state the figure in %; there is no need to write the unit.

Some solved entries appear below for comparison.
>  <COMPOUND>
Cn1ccnc1Oc1ccc(Cl)cc1

>  <growth inhibition (%)>
3

$$$$
>  <COMPOUND>
Nc1ncncc1C(C1=C(O)COC1=O)C1=C(O)COC1=O

>  <growth inhibition (%)>
-2

$$$$
>  <COMPOUND>
NNc1c(F)c(F)cc(F)c1F

>  <growth inhibition (%)>
-18

$$$$

*Q* What does the record list as growth inhibition for "O=[N+]([O-])c1cccc2nccc(NCCCO)c12" ?
*A* 11

*Q* Also, "Cc1c(C(=O)C(=O)c2ccccc2)c(C)c(C(=O)C(=O)c2ccccc2)c(C)c1C(=O)C(=O)c1ccccc1" please.
*A* -29

*Q* Also, "CC(C)/C(Cl)=N\OC(=O)Nc1cccc(Cl)c1" please.
*A* -26

*Q* Also, "CC(=O)Cc1ccc[cH-]1.[Fe+2].c1cc[cH-]c1" please.
*A* 22

*Q* Also, CCCCCCCCCCC1CCC(=O)O1 (stereo not given) please.
*A* 16

*Q* Also, "O=C(c1ccc(Cl)cc1Cl)C(Cl)Cl" please.
*A* 13

*Q* Also, "O=[n+]1c2ccc(Cl)cc2n([O-])c2ccc(Cl)cc21" please.
*A* 39

*Q* Also, "COc1ccccc1/C=C1\Sc2scc(-c3cccc([N+](=O)[O-])c3)[n+]2C1=O" please.
*A* 98

*Q* Also, "Cc1ccc(CCC2=CCCc3c2ccc2ccccc32)cc1" please.
*A* 0

*Q* Also, "O=[N+]([O-])c1cccc([N+](=O)[O-])c1S(=O)(=O)c1ccccc1" please.
*A* 95

*Q* Also, "CC(C)/C(Cl)=N\OC(=O)Nc1ccccc1F" please.
*A* 21

*Q* Also, "O=C(NCCCCCCCN1CCCCCCC1)C(C1CCCCC1)C1CCCCC1" please.
*A* 81

###

# TEST DETAILS: NCI Yeast Anticancer Drug Screen. Data for the rad50EPP+ strain (AID 151);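 also: 0% = growth of vehicle-treated control cultures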
# CONDITION INFO: S. cerevisiae rad50 mutant strain, at 100.0 µM
About 79,000 compounds went through this panel and 15% of them were active in at least one assay; those are over-represented in the sample as a whole. Calls of active or inactive are those of the source. Rule as the data show it: active = growth inhibition above about 70%; inactive = the rest.
Give one outcome, nothing more. List: 1 for active, -1 for inactive

Take a look at these entries with their results.
>  <MOLECULE>
CCC(C)COC(=O)c1ccc(N=Cc2ccc(C=Nc3ccc(C(=O)OCC(C)CC)cc3)cc2)cc1 (stereo not given)

>  <LABEL>
-1

$$$$
>  <MOLECULE>
O=[N+]([O-])c1ccc2c(c1)C(N1CCN(CCO)CC1)Cc1ccc(F)cc1S2 (stereo not given)

>  <LABEL>
-1

$$$$
>  <MOLECULE>
Cc1c(C2=C(Br)C(=O)N(C)C2=O)c(=O)n(C)c(=O)n1C

>  <LABEL>
-1

$$$$
>  <MOLECULE>
Cc1c(Cl)ccc2c1S(=O)(=O)c1cccc(Cl)c1-2

>  <LABEL>
-1

$$$$
>  <MOLECULE>
Cn1c(=O)c2ccccc2c2ccccc21

>  <LABEL>
1

$$$$
>  <MOLECULE>
OC1(c2ccccc2)CSC2=Nc3ccccc3C3CCN1N23 (stereo not given)

>  <LABEL>
-1

$$$$

*Q* Record request — test call for "COc1ccc(/C=C/C(=O)C(C)(C)Br)cc1"
*A* 1

*Q* Also, O=C(c1ccc(Cl)cc1)C1OC12C(=O)Nc1ccccc12 (stereo not given) please.
*A* 1

*Q* Also, "CNC(=O)OCc1c(COC(=O)NC)c(-c2ccc(-c3ccccc3)cc2)n(C)c1C" please.
*A* -1

*Q* Also, "C/C(=N/NC(=S)N1CCCCCC1)c1cccc(/C(C)=N\NC(=S)N2CCCCCC2)n1" please.
*A* -1

*Q* Also, "OC1CSCCCSCCSCCCSC1" please.
*A* -1

*Q* Also, "Cc1ccc(-c2ccc(Nc3c4ccccc4nc4ccccc34)cc2)cn1" please.
*A* 1
